Kindly find below IC50 information for Cytochrome P450 1A2 (Homo sapiens, UniProt P05177) taken from the literature.

Answered examples (7):
> print(dat)
                                test.smiles                               target.desc      result
1  CC[C@@H](C#N)NC(=O)c1ccc(-c2nc(Nc3cn[nH]c3)ncc2Cl)cc1  Cytochrome P450 1A2 (Homo sapiens, UniProt P05177)     10.7 µM
2  CC[C@H]1SC(N)=N[C@](C)(c2cc(NC(=O)c3cnc(OCF)cn3)ccc2F)[C@H]1F  Cytochrome P450 1A2 (Homo sapiens, UniProt P05177)     ≥ 20 µM
3  CS(=O)(=O)c1ccc2c(c1)CN([C@H]1CO[C@H](c3cc(F)ccc3F)[C@@H](N)C1)C2  Cytochrome P450 1A2 (Homo sapiens, UniProt P05177)     > 25 µM
4       Cc1cccc2c1Oc1ccc(Cl)cc1N=C2N1CCNCC1  Cytochrome P450 1A2 (Homo sapiens, UniProt P05177)      1.8 µM
5  Fc1cc(OC(F)(F)F)ccc1-c1cn2c(C(F)F)nnc2cn1  Cytochrome P450 1A2 (Homo sapiens, UniProt P05177)  1 to 15 µM
6  C[C@@]1(c2cc(NC(=O)c3cc4n(n3)CCN4)ccc2F)C=CSC(N)=N1  Cytochrome P450 1A2 (Homo sapiens, UniProt P05177)     > 20 µM
7  FC1(F)CC(Oc2ccc(-c3ccc4nnc(C(F)(F)F)n4n3)cc2)C1  Cytochrome P450 1A2 (Homo sapiens, UniProt P05177)     > 30 µM

Now look at this entry.
# input Query the reported IC50 for Cytochrome P450 1A2 (Homo sapiens, UniProt P05177); item: "CC(C)Oc1ccc(S(=O)(=O)N2C[C@H](n3nc(CC(=O)O)c4ccc(F)cc43)C[C@H]2CO)cc1"
# output > 20 µM

====

Kindly find below IC50 information for Cytochrome P450 1A2 (Homo sapiens, UniProt P05177) taken from the literature.

Answered examples (10):
> print(dat)
                                    molecule       result
 1  Cc1cc(C(F)(F)F)ccc1-c1ccc2nnc(C(F)(F)F)n2n1   1 to 15 µM
 2  C[C@H]1[C@@H](C(F)F)OC(N)=N[C@]1(C)c1cc(NC(=O)c2cnc(OCF)cn2)ccc1F      ≥ 20 µM
 3  C[C@H]1SC(N)=N[C@](C)(c2cccc(NC(=O)c3ccc(F)cn3)c2)[C@H]1F      ≥ 10 µM
 4  C[C@H]1SC(N)=N[C@](C)(c2cccc(NC(=O)c3cnc(OCF)cn3)c2)[C@H]1F      ≥ 20 µM
 5  COc1cnc(C(=O)Nc2ccc(F)c([C@@]3(C)N=C(N)SCC34CC(F)(F)C4)c2)cn1      ≥ 20 µM
 6  Cc1cc(OC(F)(F)F)ccc1-c1cn2c(C(F)(F)F)nnc2cn1  15 to 30 µM
 7  CCOc1ccc(S(=O)(=O)N2C[C@@H](C)[C@@H](n3nc(CC(=O)O)c4ccccc43)C2)cn1      > 20 µM
 8  COc1cnc(C(=O)Nc2ccc(F)c([C@@]3(C)N=C(N)S[C@H](C)[C@@H]3F)c2)cn1      ≥ 20 µM
 9  CO[C@H]1[C@@H](CF)OC(N)=N[C@]1(C)c1cc(NC(=O)c2cnc(OCF)cn2)ccc1Cl      ≥ 20 µM
10  COc1ccnc(Oc2ccc(/N=c3\[nH]c(=O)n(C[C@H](C)C(=O)O)c(=O)n3Cc3ccc(Cl)cc3)cc2)c1      > 20 µM

# input Reported IC50, molecule "C[C@H]1[C@H](C(F)(F)F)OC(N)=N[C@]1(C)c1cc(NC(=O)c2ccc(C#N)cn2)ccc1F" : ____
# output ≥ 10 µM

# input Reported IC50, molecule "COc1cnc(C(=O)Nc2cccc([C@@]3(C)N=C(N)S[C@H](C)[C@@H]3F)c2)cn1" : ____
# output ≥ 20 µM

# input Reported IC50, molecule "COc1cnc(C(=O)Nc2ccc(F)c([C@@]3(C)N=C(N)O[C@H](C4(F)CC4)[C@@H]3F)c2)cn1" : ____
# output ≥ 20 µM

# input Reported IC50, molecule "O=c1[nH]/c(=N\c2ccc(Oc3ncccc3F)cc2)n(Cc2ccc(Cl)cc2)c(=O)n1[C@H]1C[C@H](C(=O)O)C1" : ____
# output > 20 µM

# input Reported IC50, molecule "CC[C@H]1SC(N)=N[C@](C)(c2cc(NC(=O)c3ccc(F)cn3)ccc2F)[C@H]1F" : ____
# output ≥ 20 µM

# input Reported IC50, molecule "COc1nn([C@@H](Cc2ccccc2)C(=O)Nc2ccc(C(=O)O)cc2)c(=O)cc1-c1cc(Cl)ccc1C(C)=O" : ____
# output > 50 µM
